- Assayed System: sigma receptor
- Test: [3H]DTG displacement radioligand binding assay, guinea pig brain membranes
- Test Parameters: list of especially preferred compounds; read-out: IC50 (high binding to the sigma receptor)
Quick list: pIC50 per entry.
Remember, pIC50 is on a log scale: it is -log10 of the molar concentration.

Recorded pIC50, per entry:
Molecule: N=C(Nc1ccccc1C(F)(F)F)NC12CC3CC(CC(C3)C1)C2
pIC50: 8.13
//
Molecule: Cc1ccccc1NC(=N)N[C@H]1C[C@@H]2CC[C@H]1C2 (relative stereo)
pIC50: 8.15

Query: Look up pIC50 for this molecule: Cl.N=C(Nc1ccccc1I)NC12CC3CC(CC(C3)C1)C2 [AdIpG, HCl]
Result: 8.21

Query: Look up pIC50 for this molecule: N=C(Nc1ccccc1I)NC1C2CC3CC(C2)CC1C3 (stereo not shown)
Result: 8.46

Query: Look up pIC50 for this molecule: Cc1ccccc1NC(=N)NC12CC3CC(C)(CC(C)(C3)C1)C2
Result: 7.82

Query: Look up pIC50 for this molecule: Cc1ccccc1NC(=N)N[C@H]1C[C@@H]2CC[C@@]1(C)C2(C)C (relative stereo)
Result: 7.60

* * *

- Assayed System: sigma receptor
- Test: [3H]DTG displacement radioligand binding assay, guinea pig brain membranes
- Test Parameters: read-out: IC50 binding values
Readout Kind: IC50 (µM)
# number only, unit µM dropped from output

Molecule: C=CCN1CCC2(C)c3cc(O)ccc3CC1C2C (single isomer, unassigned; (-)) [(-)SKF 10,047, N-allyl-normetazocine, reference compound]
IC50 / µM: 4

Now for the molecule whose IC50 we want.
Query: Look up IC50 with sigma receptor for this molecule: CN(C)CCCN1c2ccccc2Sc2ccc(Cl)cc21 [Chlorpromazine, reference compound]
Result: 1.48

* * *

- Assayed System: sigma receptor
- Test: [3H]DTG displacement radioligand binding assay, guinea pig brain membranes
- Test Parameters: list of especially preferred compounds; read-out: IC50 (high binding to the sigma receptor)
Readout Kind: log10 of IC50 (log10 of the value in nM)
Field: value | Transform: log10 | Quantity: IC50 | Unit: nM

Recorded log10 of IC50, per entry:
Compound: Cc1ccccc1NC(=N)N[C@@H]1C[C@@H]2CC[C@H]1C2 (relative stereo)
log10 of IC50: 0.78
--
Compound: N=C(NC1CCCCC1)NC1CCCCC1
log10 of IC50: 1.85
--
Compound: N=C(Nc1cccc2c1CCC2)Nc1cccc2c1CCC2
log10 of IC50: 1.45
--
Compound: CC(C)(C)NC(=N)Nc1ccccc1I
log10 of IC50: 1.30
--
Compound: N=C(Nc1ccc(F)cc1C(F)(F)F)NC12CC3CC(CC(C3)C1)C2
log10 of IC50: 0.60

Query: Look up log10 of IC50 for this compound: Cc1ccccc1NC(=N)NC1C2CC3CC(C2)CC1C3 (stereo not shown)
Result: 0.85

Query: Look up log10 of IC50 for this compound: N=C(Nc1ccccc1I)N[C@H]1C[C@@H]2CC[C@H]1C2 (relative stereo)
Result: 0.60

Query: Look up log10 of IC50 for this compound: Cc1ccccc1NC(=N)Nc1c(C)cccc1C
Result: 1.85

Query: Look up log10 of IC50 for this compound: N=C(Nc1ccc2oc(=O)ccc2c1)NC12CC3CC(CC(C3)C1)C2
Result: 1.34

Query: Look up log10 of IC50 for this compound: N=C(Nc1ccccc1I)N[C@@H]1C[C@@H]2CC[C@H]1C2 (relative stereo)
Result: 0.70

* * *

- Assayed System: sigma receptor
- Test: [3H]DTG displacement radioligand binding assay, guinea pig brain membranes
- Test Parameters: Example 25; guinea pig brain membrane homogenates; read-out: IC50 binding values
Structures can show the parent of a compound that is named as a salt.
Readout Kind: IC50 (nM)
# number only, unit nM dropped from output

Recorded IC50, per entry:
Molecule: CC12CC3CC(C)(C1)CC(NC(=N)Nc1ccccc1I)(C3)C2
Readout Kind: IC50
Unit Tag: nM
Experimental Result: 16

Molecule: N=C(NCc1ccccc1)NCc1ccccc1
Readout Kind: IC50
Unit Tag: nM
Experimental Result: 90

Molecule: Cc1ccccc1NC(=N)Nc1ccc(N)cc1C [NH2 --DTG, hydrochloride]
Readout Kind: IC50
Unit Tag: nM
Experimental Result: 280

Molecule: Cl.N=C(Nc1ccccc1I)NC12CC3CC(CC(C3)C1)C2 [AdIpG, HCl]
Readout Kind: IC50
Unit Tag: nM
Experimental Result: 6.2

Molecule: N=C(NC1CCCCC1)NC1CCCCC1
Readout Kind: IC50
Unit Tag: nM
Experimental Result: 71

Now for the molecule whose IC50 we want.
Query: Look up IC50 for this molecule: CCCN1CCC[C@@H](c2cccc(O)c2)C1 [(-)3-PPP, reference compound]
Result: 280

* * *

Quick list: pIC50 per entry.
- Assayed System: sigma receptor
- Test: [3H]DTG displacement radioligand binding assay, guinea pig brain membranes
- Test Parameters: read-out: IC50 vs [3H]DTG; Table I; guinea pig brain membranes
Structures can show the parent of a compound that is named as a salt.
Remember, pIC50 is on a log scale: it is -log10 of the molar concentration.

Molecule: Cc1ccccc1NC(=N)NC12CC3CC(CC(C3)C1)C2 [AdTG]
Assayed System: sigma receptor
pIC50: 8.52
//
Molecule: N=C(NC12CC3CC(CC(C3)C1)C2)NC12CC3CC(CC(C3)C1)C2 [DAG, N,N'-di-(adamantan-1-yl)guanidine]
Assayed System: sigma receptor
pIC50: 7.77
//
Molecule: N=C(NC1CCCCC1)NC1CCCCC1 [N,N'-di(cyclohexyl)guanidine]
Assayed System: sigma receptor
pIC50: 7.15

Now for the molecule whose pIC50 we want.
Query: Look up pIC50 for this molecule: N=C(NC1CCCCC1)NC12CC3CC(CC(C3)C1)C2 [AdChG, HCl]
Result: 7.89

* * *

- Assayed System: sigma receptor
- Test: [3H]DTG displacement radioligand binding assay, guinea pig brain membranes
- Test Parameters: list of especially preferred compounds; read-out: IC50 (high binding to the sigma receptor)
Readout Kind: IC50 (nM)
# number only, unit nM dropped from output

Sample Smiles: Cc1cc(Br)ccc1NC(=N)NC1CCCCC1
Unit Tag: nM
Experimental Result: 5.5

Sample Smiles: N=C(Nc1ccccc1[N+](=O)[O-])NC12CC3CC(CC(C3)C1)C2
Unit Tag: nM
Experimental Result: 30

Sample Smiles: Cc1ccccc1NC(=N)NC12CC3CC(CC(C3)C1)C2
Unit Tag: nM
Experimental Result: 7.6

Query: Look up IC50 for this compound: Cc1ccccc1NC(=N)Nc1ccc([N+](=O)[O-])cc1C
Result: 37

* * *

- Assayed System: sigma receptor
- Test: [3H]DTG displacement radioligand binding assay, guinea pig brain membranes
- Test Parameters: Example 25; guinea pig brain membrane homogenates; read-out: IC50 binding values
Readout Kind: pIC50
Remember, pIC50 is on a log scale: it is -log10 of the molar concentration.

Recorded pIC50, per entry:
Molecule: Cc1ccccc1NC(=N)Nc1ccc([N+](=O)[O-])cc1C
Experimental Result: 7.43
--
Molecule: N=C(Nc1ccccc1I)NC1C2CC3CC(C2)CC1C3 (centres unmarked)
Experimental Result: 8.28

Now for the molecule whose pIC50 we want.
Query: Look up pIC50 for this molecule: Cc1ccccc1NC(=N)Nc1ccccc1I
Result: 7.68

* * *

- Assayed System: sigma receptor
- Test: [3H]DTG displacement radioligand binding assay, guinea pig brain membranes
- Test Parameters: read-out: IC50 vs [3H]DTG; Table I; guinea pig brain membranes
Quick list: pIC50 per entry.
Remember, pIC50 is on a log scale: it is -log10 of the molar concentration.

Recorded pIC50, per entry:
Sample Smiles: Cc1ccccc1NC(=N)Nc1ccc(N=[N+]=[N-])cc1C
Experimental Result: 7.70
--
Sample Smiles: Cc1ccccc1NC(=N)NC1CCCCC1
Experimental Result: 7.77
--
Sample Smiles: CCCCNC(=N)NCCCC
Experimental Result: 6.12
--
Sample Smiles: Cc1ccccc1NC(=N)Nc1ccccc1I
Experimental Result: 7.68

Now for the compound whose pIC50 we want.
Query: Look up pIC50 for this compound: Cc1cccc(C)c1NC(=N)Nc1c(C)cccc1C
Result: 7.05
